- Assay comment: A CellTox Green Cytotoxicity Assay to monitor cytotoxicity in HepG2 cells - 16 hour (AID 1224876); note: nearly all actives have a fitted effect of over 45% in size
- Experimental context: CellTox Green fluorescence; series mostly up to 76.8 µM
Results filed as inconclusive are left out. Active and inactive are the calls of the source. Calls come from the whole dose curve; as a rule, active = well fitted activation curve with a large enough effect in the repeat runs; inconclusive = weak or mixed curves; inactive = flat fitted curve, though single readings scatter.
Classes used: active, inactive

Mol smiles	Assigned class
CCOc1nc(F)cc2nc(S(=O)(=O)Nc3c(Cl)cccc3C(=O)OC)nn12	inactive
Cc1ccc2nc(-c3ccc(N)cc3)sc2c1S(=O)(=O)O	inactive
Cc1ccc(S(=O)(=O)C(I)I)cc1	active
O=C1CCC/C=C\CCCCCCCCCC1	inactive
CCCCCCCCc1ccc(Nc2ccc(CCCCCCCC)cc2)cc1	inactive
Clc1ccc2c(Cl)ccnc2c1	inactive
Nc1ccc2c(S(=O)(=O)O)cccc2c1S(=O)(=O)O	inactive
ClC(c1ccccc1)(c1ccccc1)c1ccccc1	inactive
CN[C@H]1CC[C@@H](c2ccc(Cl)c(Cl)c2)c2ccc(S(N)(=O)=O)cc21	active
O=C1CCCCCCCCCCCCCC1	inactive

* * *

- Assay comment: Caspase-3/7 induction in HepG2 cells by small molecules, qHTS assay (AID 1346978); note: nearly all actives have a fitted effect of over 15% in size
- Experimental context: HepG2 caspase-3/7 activation, Caspase-Glo luminescence, 17 h; series mostly up to 92.4 µM
Inconclusive results are not listed. The source made the active and inactive calls. The call rests on the fitted dose curve; in most records, active means well fitted activation curve with a large enough effect in the repeat runs; inconclusive means weak or mixed curves; inactive means flat fitted curve, though single readings scatter.
Labels: T = active, F = inactive

Molecule	Assigned class
O=C1CCC/C=C\CCCCCCCCCC1	F
Clc1cccc(Cl)n1	F
O=C(N[C@H](CO)[C@H](O)c1ccc([N+](=O)[O-])cc1)C(Cl)Cl	F
O=C(CCN1CCC(c2ccccc2)C1)c1ccc2c(c1)OCCO2 (configuration not stated)	F
[Cl][Eu]([Cl])[Cl]	F
Nc1cccnc1N	F
COc1c(Br)cc(Br)c(C)c1Br	F
c1ccc(-c2ccccc2-c2ccccc2)cc1	F
Cc1c(Cl)c(=O)oc2cc(O)ccc12	F
CC(=O)CC(N)=O	F
NCc1ccco1	F
S=C1NC=NC2N=CNC12 (configuration not stated)	F
C=Cc1ccncc1	F
CCC(=O)OC/C=C(\C)CCC=C(C)C	F
CCOc1nc(F)cc2nc(S(=O)(=O)Nc3c(Cl)cccc3C(=O)OC)nn12	F
CCOC(=O)[C@H](C)O	F
CC/C(=C(/c1ccc(O)cc1)c1ccc(OCCN(C)C)cc1)c1ccccc1	T
CC(CC(C)(C)C)CC(C)(C)CC(C)(C)C (configuration not stated)	F
Cc1ccc2n[nH]nc2c1	F
CC1CCC(C(C)(C)O)CC1 (configuration not stated)	F
CSc1ccc(O)cc1C	F
CN(C/C=C/c1ccccc1)Cc1cccc2ccccc12	F
CC(C)(c1ccc(Oc2ccc(N)cc2)cc1)c1ccc(Oc2ccc(N)cc2)cc1	F
N#Cc1ccc(C/C(=N/NC(=O)Nc2ccc(OC(F)(F)F)cc2)c2cccc(C(F)(F)F)c2)cc1	F
CO[Si](OC)(c1ccccc1)c1ccccc1	F
CC(Cc1ccc(O)c(O)c1)C(C)Cc1ccc(O)c(O)c1 (configuration not stated)	F
[Cl][Dy]([Cl])[Cl]	F
O=C1c2ccccc2C(=O)c2c(Cl)cccc21	F
C1CCSC1	F
Cc1cccc(C)c1C	F
CC(=O)[C@]1(O)Cc2c(O)c3c(c(O)c2[C@@H](O[C@H]2C[C@H](N)[C@H](O)[C@H](C)O2)C1)C(=O)c1ccccc1C3=O	T
NC(=O)c1ccccc1Cl	F
CCCC(=O)c1cc(O)c(O)cc1O	F
O=C1OC(=O)c2cc(-c3ccc4c(c3)C(=O)OC4=O)ccc21	F
N#CCCOCCC#N	F
O=C1OC(O)C(C(Cl)Cl)=C1Cl (configuration not stated)	F
CCOC=C(C(=O)OCC)C(=O)OCC	F

* * *

- Assay comment: qHTS assay to identify small molecule antagonists of the estrogen related receptor (ERR) signaling pathway from Tox21 library (AID 1224848); note: nearly all actives have a fitted effect of over 50% in size
- Experimental context: ERR reporter cell line, luciferase antagonist mode, 18 h; series mostly up to 92.4 µM
Inconclusive results are not listed. The source made the active and inactive calls. Calls follow the shape of the dose curve; as a rule, active = well fitted inhibition curve with a large enough effect in the repeat runs; inconclusive = weak or mixed curves; inactive = no such curve, though single readings can be large or run the other way.
Possible outcomes: active, inactive

Mol smiles	Assigned class
CCN(CCC#N)c1ccc(N=Nc2ccc([N+](=O)[O-])cc2)cc1	inactive
Nc1ccc(F)c([N+](=O)[O-])c1	active
Cc1cccc2c1ccc1ccccc12	active
CC/C=C(\C)C=O	inactive
Clc1cccc(Cl)n1	inactive

* * *

- Assay comment: qHTS assay to identify small molecule that activate the aryl hydrocarbon receptor (AhR) signaling pathway - cell viability counter screen (AID 743086); note: nearly all actives have a fitted effect of over 45% in size
- Experimental context: HepG2-AhR-luc viability, CellTiter-Fluor, 24 h; series mostly up to 70.3 µM
Results filed as inconclusive are left out. Calls of active or inactive are those of the source. The call rests on the fitted dose curve; in most records, active means well fitted cell-killing curve with a large enough effect in the repeat runs; inconclusive means weak or mixed curves, or effect the other way; inactive means flat fitted curve, though single readings scatter. Non-standard residues stand in square brackets, D forms with d. Residues, ends and D or L forms follow the SMILES beside them. Orn = NCCC[C@H](N)C(=O)O
Possible outcomes: 1.0 for active, 0.0 for inactive

Compound	Assigned class
c1ccc2cc3c4ccccc4c4ccccc4c3cc2c1	0.0
CCCCC/C=C\C=C\C(=O)OCC	0.0
C[C@H]1O[C@@H](O[C@H]2CC[C@@]3(C)[C@H](CC[C@@H]4[C@@H]3C[C@@H](O)[C@]3(C)[C@@H](C5=CC(=O)OC5)CC[C@]43O)C2)C[C@H](O)[C@@H]1O[C@H]1C[C@H](O)[C@H](O[C@H]2C[C@H](O)[C@H](O[C@@H]3O[C@H](CO)[C@@H](O)[C@H](O)[C@H]3O)[C@@H](C)O2)[C@@H](C)O1	0.0
NC(=O)c1cc[n+](CC2=C(C(=O)O)N3C(=O)[C@@H](NC(=O)C(c4ccccc4)S(=O)(=O)[O-])[C@H]3SC2)cc1 (stereo partly drawn)	0.0
C=CC(N)CCC(=O)O (stereo not drawn)	0.0
CC(C)NCC1CCc2cc(CO)c([N+](=O)[O-])cc2N1 (stereo not drawn)	0.0
O=P(O)(O)CP(=O)(O)O	0.0
Nc1nc(NC2CC2)c2ncn([C@@H]3C=C[C@@H](CO)C3)c2n1	0.0
Cc1cc(=O)c(C(=O)N[C@@H](C(=O)N[C@@H]2C(=O)N3C(C(=O)O)=C(CSc4nnnn4C)CS[C@H]23)c2ccc(O)cc2)c[nH]1	0.0
CC(C)COC(=O)OCN1C(=O)CN(CCN2CC(=O)N(COC(=O)OCC(C)C)C(=O)C2)CC1=O	0.0
C[S+](C)CCC(N)C(=O)O (stereo not drawn)	0.0
Nc1nc(/C(=C/CC(=O)O)C(=O)N[C@@H]2C(=O)N3C(C(=O)O)=CCS[C@H]23)cs1	0.0
C/C(=C(/CCO)SSCC1CCCO1)N(C=O)Cc1cnc(C)nc1N (stereo not drawn)	0.0
Cc1cc(N)c2ccccc2[n+]1CCCCCCCCCC[n+]1c(C)cc(N)c2ccccc21	0.0
CC1(C)S[C@@H]2[C@H](NC(=O)[C@@H](NC(=O)N3CCNC3=O)c3ccccc3)C(=O)N2[C@H]1C(=O)O	0.0
CC(=O)OCC(=O)[C@@]1(O)CC[C@H]2[C@@H]3C[C@H](C)C4=CC(=O)C=C[C@]4(C)[C@H]3[C@@H](O)C[C@@]21C	0.0
CC(C)C[C@@H]1NC(=O)[C@H](CCCN)NC(=O)[C@H](C(C)C)NC(=O)[C@@H]2CCCN2C(=O)[C@@H](Cc2ccccc2)NC(=O)[C@H](CC(C)C)NC(=O)[C@H](CCCN)NC(=O)[C@H](C(C)C)NC(=O)[C@@H]2CCCN2C(=O)[C@@H](Cc2ccccc2)NC1=O (cyclo(V[Orn]L[dF]PV[Orn]L[dF]P))	1.0
O=c1[nH]c(=O)n([C@H]2C[C@H](O)[C@@H](CO)O2)cc1/C=C/Br	0.0
CC(C)[N+]1(C)[C@@H]2CC[C@H]1CC(OC(=O)C(CO)c1ccccc1)C2 (stereo partly drawn)	0.0
CC(C)(C)c1ccc2c(S(=O)(=O)O)c(C(C)(C)C)ccc2c1	0.0
C=CC1=C(C(=O)O)N2C(=O)[C@@H](NC(=O)/C(=N\O)c3csc(N)n3)[C@H]2SC1 (stereo in doubt)	0.0
CC(C)=CCC/C(C)=C/CC/C(C)=C/CC/C(C)=C/CC1=C(C)C(=O)c2ccccc2C1=O	0.0
CN[C@@H]1[C@@H](O[C@H]2O[C@H](CO)[C@@H](N)[C@H](O)[C@H]2O)O[C@H]2C[C@@H](N)[C@@H](O[C@H]3[C@H](O)[C@@H](O)[C@H](N)C[C@@H]3N)O[C@@H]2[C@@H]1O	0.0
Cc1cc(F)ccc1-c1cc(N2CC[C@@H](O)[C@H]2CO)ncc1N(C)C(=O)C(C)(C)c1cc(C(F)(F)F)cc(C(F)(F)F)c1	1.0
CC/C=C\C/C=C\C/C=C\C/C=C\C/C=C\C/C=C\CCC(=O)O	0.0
CCC1OC(=O)C[C@@H](O)[C@H](C)[C@@H](O[C@@H]2O[C@H](C)C[C@H](N(C)C)[C@H]2O)[C@@H](CC=O)C[C@@H](C)C(=O)/C=C/[C@]2(C)OC2C1C (stereo partly drawn)	1.0
CS(=O)(=O)c1ccc([C@@H](O)[C@@H](COC(=O)CN)NC(=O)C(Cl)Cl)cc1	0.0
OCC1(CO)COC(C(Cl)(Cl)Cl)OC1	0.0
